- system_under_test: T1, human angiotensin 2 type 1 receptor (human, UniProt P30556 1-359)
- T1 sequence (looked up): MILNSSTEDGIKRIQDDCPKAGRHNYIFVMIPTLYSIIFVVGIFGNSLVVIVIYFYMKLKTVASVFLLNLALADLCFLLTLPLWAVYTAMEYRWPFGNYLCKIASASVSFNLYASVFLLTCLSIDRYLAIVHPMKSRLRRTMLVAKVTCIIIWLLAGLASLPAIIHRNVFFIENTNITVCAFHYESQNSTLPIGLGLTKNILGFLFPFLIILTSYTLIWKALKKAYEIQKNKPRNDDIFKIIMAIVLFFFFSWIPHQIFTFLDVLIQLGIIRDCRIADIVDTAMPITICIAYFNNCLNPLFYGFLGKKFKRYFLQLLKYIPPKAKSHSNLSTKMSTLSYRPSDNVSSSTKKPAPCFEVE
- procedure_summary: cell-based or functional assay
Where no end group is shown, it is not given here. [ ]: non-standard residue; d: D form. Ac6c = NC1(C(=O)O)CCCCC1; cyPen = not defined here; Ac5c = NC1(C(=O)O)CCCC1; Sar = CNCC(=O)O
measurement_kind: IP1 G-protein assay EC50

{"binder": "[Sar]RVY[Ac6c]HPM [SEQ ID NO: 16 (Sar-Arg-Val-Tyr-cyHex-His-Pro-Met)]", "measurement_kind": "IP1 G-protein assay EC50", "reading": "> 1.3 nM"}
{"binder": "[Sar]RVY[Ac5c]HPS [SEQ ID NO: 22 (Sar-Arg-Val-Tyr-cyPen-His-Pro-Ser)]", "measurement_kind": "IP1 G-protein assay EC50", "reading": "> 1.3 nM"}
{"binder": "[Sar]RVY[Ac6c]HPW [SEQ ID NO: 54 (Sar-Arg-Val-Tyr-cyHex-His-Pro-Trp)]", "measurement_kind": "IP1 G-protein assay EC50", "reading": "> 1.3 nM"}

Need IP1 G-protein assay EC50 for each of these binders.
1. [Sar]RVY[Ac5c]HPV [SEQ ID NO: 20 (Sar-Arg-Val-Tyr-cyPen-His-Pro-Val)]
2. [Sar]RVYPHPI [SEQ ID NO: 4 (Sar-Arg-Val-Tyr-Pro-His-Pro-Ile)]
3. [Sar]RVY[Ac5c]HPF [SEQ ID NO: 24 (Sar-Arg-Val-Tyr-cyPen-His-Pro-Phe)]
4. [Sar]RVYPHPV [SEQ ID NO: 6 (Sar-Arg-Val-Tyr-Pro-His-Pro-Val)]
5. [Sar]RVYPHPL [SEQ ID NO: 5 (Sar-Arg-Val-Tyr-Pro-His-Pro-Leu)]
6. [Sar]RVYPHP[dA] [SEQ ID NO: 60 (Sar-Arg-Val-Tyr-Pro-His-Pro-D-Ala)]
7. [Sar]RVY[cyPen]HPA (reading uncertain; also: printed as Sar-Arg-Val-Tyr-cyPen-His-Pro-Ala) [SEQ ID NO: 3 (Sar-Arg-Val-Tyr-cyPen-His-Pro-Ala)]
8. [Sar]RVY[Ac6c]HPV [SEQ ID NO: 13 (Sar-Arg-Val-Tyr-cyHex-His-Pro-Val)]

[out]
> 1.3 nM
2.5 nM
< 1.3 nM
63.1 nM
3.2 nM
> 1.3 nM
> 10000 nM
> 1.3 nM

For each listed entry, give its IP1 G-protein assay EC50.
1. [Sar]RVY[Ac6c]HPL [SEQ ID NO: 12 (Sar-Arg-Val-Tyr-cyHex-His-Pro-Leu)]
2. [Sar]RVY[Ac6c]HPP [SEQ ID NO: 39 (Sar-Arg-Val-Tyr-cyHex-His-Pro-Pro)]
3. [Sar]RVY[Ac6c]HPQ [SEQ ID NO: 38 (Sar-Arg-Val-Tyr-cyHex-His-Pro-Gln)]
4. [Sar]KVY[Ac6c]HPA [SEQ ID NO: 51 (Sar-Lys-Val-Tyr-cyHex-His-Pro-Ala)]

[out]
["> 1.3 nM", "> 1.3 nM", "> 1.3 nM", "> 1.3 nM"]
